- Tested on: DENV-2 16681 strain
- procedure-summary: DENV-2 antiviral assay (eGFP-labeled virus in Vero cells)
- Format: cell-based, Dengue virus
- test-context: DENV-2 16681 eGFP, MOI 0.5, 3 days, listed as 10A

# molecule, tested-on, EC50, nM
rows = [
    ("COc1cc(NC(C(=O)c2c[nH]c3cc(OC)c(C)cc23)c2ccc(F)cc2OC)cc(S(C)(=O)=O)c1 (single isomer, unassigned) [Enantiomer 10A]", "DENV-2 16681 strain", 54),
]

====

- Test system: DENV-3 strain H87
- procedure-summary: Tetravalent RT-qPCR assay Protocol A, serotype 3
- Format: cell-based
- test-context: Dengue virus, DENV3, 72 h; RT-qPCR serotype 3 H87, Vero cells, day 3
The entries below are paired with their reported EC50.

# compound, EC50 [nM]
data = [
    ("COc1cc(NC(C(=O)c2c[nH]c3c(Cl)c(OC)ccc23)c2ccc(F)cc2OC)cc(S(C)(=O)=O)c1 (single isomer, unassigned) [Enantiomer 12A]", 73.8),
    ("COc1cc(NC(C(=O)c2c[nH]c3ccc(C(F)(F)F)cc23)c2ccc(F)cc2OC)cc(S(C)(=O)=O)c1 (single isomer, unassigned) [Enantiomer 17B]", 7.28),
    ("COc1cc(NC(C(=O)c2c[nH]c3c(F)cc(C)cc23)c2ccc(F)cc2OC)cc(S(C)(=O)=O)c1 (single isomer, unassigned) [Enantiomer 6A]", 123),
    ("COc1cc(NC(C(=O)c2c[nH]c3cc(F)ccc23)c2ccc(F)cc2OC)cc(S(C)(=O)=O)c1 (single isomer, unassigned) [Enantiomer 1A]", 49.6),
    ("COc1cc(NC(C(=O)c2c[nH]c3ccc(C)cc23)c2ccc(F)cc2OC)cc(S(C)(=O)=O)c1 (single isomer, unassigned) [Enantiomer 15A]", 22.1),
    ("COc1cc(NC(C(=O)c2c[nH]c3cc(F)c(C)cc23)c2ccc(F)cc2OC)cc(S(C)(=O)=O)c1 (single isomer, unassigned) [Enantiomer 14A]", 13.1),
    ("COc1cc(NC(C(=O)c2c[nH]c3cc(C)c(F)cc23)c2ccc(F)cc2OC)cc(S(C)(=O)=O)c1 (single isomer, unassigned) [Enantiomer 9A]", 104),
    ("COc1cc(NC(C(=O)c2c[nH]c3c(C)c(F)ccc23)c2ccc(F)cc2OC)cc(S(C)(=O)=O)c1 (single isomer, unassigned) [Enantiomer 2A]", 58.4),
    ("COc1cc(NC(C(=O)c2c[nH]c3cc(OC)ccc23)c2ccc(F)cc2OC)cc(S(C)(=O)=O)c1 (single isomer, unassigned) [Enantiomer 5B]", 100),
    ("COc1cc(NC(C(=O)c2c[nH]c3c(C)cc(F)cc23)c2ccc(F)cc2OC)cc(S(C)(=O)=O)c1 (single isomer, unassigned) [Enantiomer 8A]", 82.1),
    ("COc1cc(NC(C(=O)c2c[nH]c3cc(OC)c(C)cc23)c2ccc(F)cc2OC)cc(S(C)(=O)=O)c1 (single isomer, unassigned) [Enantiomer 10B]", 55.4),
]
